These entries and their values trace back to paper PMC12361874.

Biological target: hCAI isoenzyme purified from human erythrocytes (Homo sapiens, UniProt P00915)
Construct: hCAI isoenzyme purified from human erythrocytes; from tissue; host or cells: human erythrocytes
Sequence (P00915 whole entry): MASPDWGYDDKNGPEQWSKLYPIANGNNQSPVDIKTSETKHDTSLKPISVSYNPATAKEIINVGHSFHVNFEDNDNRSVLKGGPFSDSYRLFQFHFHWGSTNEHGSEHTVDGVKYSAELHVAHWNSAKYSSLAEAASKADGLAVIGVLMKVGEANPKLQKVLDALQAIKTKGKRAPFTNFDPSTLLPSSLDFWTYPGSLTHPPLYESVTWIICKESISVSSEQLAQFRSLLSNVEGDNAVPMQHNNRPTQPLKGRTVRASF
Experiment: Inhibition of esterase activity (p-nitrophenyl acetate) of purified hCAI; IC50, Ki, inhibition type
Format: biochemical
Settings: [I] 0.019 mM; Lineweaver–Burk; read-out: Ki values

| molecule | display unit | Ki |
| --- | --- | --- |
| O=C([O-])c1ccccc1-c1c2cc(I)c(=O)c(I)c-2oc2c(I)c([O-])c(I)cc12.[Na+].[Na+] [Erythrosine B] | nM | 1700 |

* * *

Target: hCAI isoenzyme purified from human erythrocytes (Homo sapiens)
Construct: hCAI isoenzyme purified from human erythrocytes; from tissue; host or cells: human erythrocytes
Assay: Inhibition of esterase activity (p-nitrophenyl acetate) of purified hCAI; IC50, Ki, inhibition type
Assay type: biochemical
Conditions: Table 3; read-out: IC50 (hCAI esterase activity)
quantity kind: IC50 (µM)

| molecule smiles | quantity kind | display unit | endpoint value |
| --- | --- | --- | --- |
| O=C([O-])c1ccccc1-c1c2cc(I)c(=O)c(I)c-2oc2c(I)c([O-])c(I)cc12.[Na+].[Na+] | IC50 | µM | 19 |
